# assay-system: T1, cyno PD-1 (SPR analyte) (cynomolgus monkey)
# T1 construct: Construct of the soluble analyte is not described; also called cynomolgus PD-1
# experiment-summary: SPR, ProteOn XPR36, mAb captured by anti-human IgG Fc, cyno PD-1 as analyte, 25 C
readout: koff (s⁻¹)
Number only, in s⁻¹; omit the unit.

As a guide, the following entries are already answered.
>>> measured_value("PD1B1086 (antibody, human IgG1, kappa, V domains shown, IgG1; also called PD1H586/PD1L469; E57H (VH) variant of PD1B878) VH: QVQLVQSGSELKKPGASVKVSCKASGYTFTDYSMHWVRQAPGQGLEWMGWINIETGHPTYAQGFTGRFVFSLDTSVSTAYLQISSLKAEDTAVYFCARDYYGTYFYAMDYWGQGTLVTVSS VL: EIVLTQSPATLSLSPGERATLSCTASSSVSSSYLHWYQQKPGLAPRLLIYSTSNLASGIPDRFSGSGSGTDYTLTISRLEPEDFAVYYCHQYHRSPLTFGQGTKLEIKR")
0.00544
>>> measured_value("PD1B1087 (antibody, human IgG1, kappa, V domains shown, IgG1; also called PD1H587/PD1L469; E57W (VH) variant of PD1B878) VH: QVQLVQSGSELKKPGASVKVSCKASGYTFTDYSMHWVRQAPGQGLEWMGWINIETGWPTYAQGFTGRFVFSLDTSVSTAYLQISSLKAEDTAVYFCARDYYGTYFYAMDYWGQGTLVTVSS VL: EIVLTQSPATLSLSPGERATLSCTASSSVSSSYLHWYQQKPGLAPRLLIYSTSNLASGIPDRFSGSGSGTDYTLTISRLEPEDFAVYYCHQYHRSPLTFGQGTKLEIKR")
0.00247

Consider the additional binder presented here.
Please report koff for the following binder: PD1B1093 (antibody, human IgG1, kappa, V domains shown, IgG1; also called PD1H585/PD1L652; E57Y (VH), S30P (VL) variant of PD1B878) VH: QVQLVQSGSELKKPGASVKVSCKASGYTFTDYSMHWVRQAPGQGLEWMGWINIETGYPTYAQGFTGRFVFSLDTSVSTAYLQISSLKAEDTAVYFCARDYYGTYFYAMDYWGQGTLVTVSS VL: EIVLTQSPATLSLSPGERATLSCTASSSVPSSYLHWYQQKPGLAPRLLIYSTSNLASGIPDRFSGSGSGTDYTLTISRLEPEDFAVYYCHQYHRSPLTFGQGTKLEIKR 0.000368
